- target_entity: DHAK (II) (Schizosaccharomyces pombe, UniProt O74215)
- Construct: DHAK (I) and DHAK (II) obtained from Schizosaccharomyces pombe IFO 0354; made in house; host or cells: Schizosaccharomyces pombe IFO 0354 (natural producer, not recombinant); cell extract, DEAE-Sepharose fraction at 0.16 M KCl, then Blue-Sepharose
- Sequence (O74215 whole entry): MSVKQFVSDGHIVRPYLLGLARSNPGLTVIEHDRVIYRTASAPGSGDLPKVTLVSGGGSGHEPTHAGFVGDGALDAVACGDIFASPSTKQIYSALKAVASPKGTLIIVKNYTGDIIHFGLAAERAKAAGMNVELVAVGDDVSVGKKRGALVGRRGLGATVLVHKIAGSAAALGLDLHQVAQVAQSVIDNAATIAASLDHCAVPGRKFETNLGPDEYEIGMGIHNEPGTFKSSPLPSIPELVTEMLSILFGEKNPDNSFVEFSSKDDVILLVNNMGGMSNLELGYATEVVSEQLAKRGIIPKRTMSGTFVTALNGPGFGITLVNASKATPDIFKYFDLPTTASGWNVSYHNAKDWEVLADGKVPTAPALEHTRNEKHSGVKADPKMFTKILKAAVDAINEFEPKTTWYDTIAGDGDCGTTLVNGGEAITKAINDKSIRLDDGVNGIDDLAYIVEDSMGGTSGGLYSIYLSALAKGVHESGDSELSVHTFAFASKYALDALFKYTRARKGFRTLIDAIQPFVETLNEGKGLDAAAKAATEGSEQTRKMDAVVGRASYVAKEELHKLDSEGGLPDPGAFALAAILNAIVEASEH
- test_name: Specificity of DHAK (II) for divalent metal cations
- Format: biochemical, Schizosaccharomyces pombe IFO 0354
- measurement_context: each divalent metal cation 4 mM; MgSO4 = 100%
Measured Relative activity DHAK (II) (metal cation) of individual entries
endpoint_label: Relative activity DHAK (II) (metal cation) (%)

>>> data_value("[Cl][Mn][Cl]")
9
>>> data_value("[Cl][Ni][Cl]")
0
>>> data_value("[Ca+2].[Cl-].[Cl-]")
44
>>> data_value("[Cl-].[Cl-].[Co+2]")
22
>>> data_value("O=S(=O)([O-])[O-].[Mg+2]")
100

----------
- target_entity: DHAK (I) (Schizosaccharomyces pombe)
- Construct: DHAK (I) and DHAK (II) obtained from Schizosaccharomyces pombe IFO 0354; made in house; host or cells: Schizosaccharomyces pombe IFO 0354 (natural producer, not recombinant); cell extract, DEAE-Sepharose fraction at 0.12 M KCl, then Blue-Sepharose
- Sequence (O13902 1-580): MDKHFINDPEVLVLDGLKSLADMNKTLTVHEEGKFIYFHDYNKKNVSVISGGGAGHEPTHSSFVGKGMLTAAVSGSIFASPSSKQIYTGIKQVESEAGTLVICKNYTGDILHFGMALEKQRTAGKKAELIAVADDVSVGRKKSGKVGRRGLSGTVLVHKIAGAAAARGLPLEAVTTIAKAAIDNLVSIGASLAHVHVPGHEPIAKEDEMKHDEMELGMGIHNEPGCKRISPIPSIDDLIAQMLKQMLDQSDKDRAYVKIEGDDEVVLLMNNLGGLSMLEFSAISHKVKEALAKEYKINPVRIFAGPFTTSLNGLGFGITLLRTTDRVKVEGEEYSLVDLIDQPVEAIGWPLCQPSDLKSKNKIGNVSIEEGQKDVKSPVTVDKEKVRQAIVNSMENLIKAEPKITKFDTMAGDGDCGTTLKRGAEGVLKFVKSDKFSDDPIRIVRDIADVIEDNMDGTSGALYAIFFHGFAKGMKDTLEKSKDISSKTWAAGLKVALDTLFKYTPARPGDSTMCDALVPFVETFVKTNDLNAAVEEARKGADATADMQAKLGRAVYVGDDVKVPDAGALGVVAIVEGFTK
- test_name: Substrate specificity of DHAK (I)
- Format: biochemical, Schizosaccharomyces pombe IFO 0354
- measurement_context: pH 7.5; read-out: Relative activity DHAK (I) (substrate)
Reported activity at 1000 µM values for a set of compounds
endpoint_label: activity at 1000 µM

>>> data_value("O=C(O)C(O)CO (racemic) [DL-Glyceric acid]")
"0%"
>>> data_value("O=P(O)(O)OCC(O)CO (stereo not shown) [Glycerol-3-phosphate]")
"0%"
>>> data_value("O=C(CO)CO [DHA, dihydroxyacetone]")
"100%"
>>> data_value("OCC(O)CO [Glycerol]")
"0%"

----------
- Test system: DHAK (II)
- test_name: Substrate specificity of DHAK (II)
- Assay type: biochemical, Schizosaccharomyces pombe IFO 0354
- measurement_context: each substrate 1.0 mM, pH 7.5, 25° C.; DHA = 100%
- Protocol: The reaction mixture for measuring the substrate specificity of DHAK consists of 1.0 ml of 0.1M triethanolamine-HCl buffer (pH 7.5), 2.5 mM ATP, 4 mM MgSO4, 0.2 mM NADH, 1.3 mM phosphoenolpyruvate, 6 units of pyruvate kinase, 6 units of lactate dehydrogenase (Boehringer Mannheim GmbH), 0.01 ml of enzyme solution and each substrate (1.0 mM) as shown in Table 1. The reaction is started by adding enzyme solution and measured the decrease in the absorbance at 340 nm at 25° C. […]
endpoint_label: Relative activity DHAK (II) (substrate) (%)

>>> data_value("O=C(CO)CO [DHA, dihydroxyacetone]")
100
>>> data_value("O=C(O)C(O)CO (racemic)")
0
>>> data_value("OCC(O)CO")
0
>>> data_value("CC(=O)C(C)O (stereo not drawn)")
0
>>> data_value("CC(O)CO (stereo not drawn)")
0
>>> data_value("O=P(O)(O)OCC(O)CO (stereo not drawn) [Glycerol-3-phosphate]")
0
>>> data_value("O=CC(O)CO (racemic)")
12
>>> data_value("CC(=O)CO")
0
>>> data_value("OCCCO")
0

----------
Below, each entry is listed alongside its reported Relative activity DHAK (I) (phosphate donor).
- target_entity: DHAK (I) (Schizosaccharomyces pombe, UniProt O13902)
- Construct: DHAK (I) and DHAK (II) obtained from Schizosaccharomyces pombe IFO 0354; made in house; host or cells: Schizosaccharomyces pombe IFO 0354 (natural producer, not recombinant); cell extract, DEAE-Sepharose fraction at 0.12 M KCl, then Blue-Sepharose
- test_name: Specificity of DHAK (I) for phosphate donor
- Assay type: biochemical, Schizosaccharomyces pombe IFO 0354
- measurement_context: Adenosine 5'-triphosphate = 100%
endpoint_label: Relative activity DHAK (I) (phosphate donor) (%)

>>> data_value("Nc1ncnc2c1ncn2[C@@H]1O[C@H](COP(=O)(O)OP(=O)(O)OP(=O)(O)O)[C@@H](O)[C@H]1O [Adenosine 5'-triphosphate]")
100
>>> data_value("Nc1ccn([C@@H]2O[C@H](COP(=O)(O)OP(=O)(O)OP(=O)(O)O)[C@@H](O)[C@H]2O)c(=O)n1 [Cytidine 5'-triphosphate]")
0
>>> data_value("O=P(O)(O)OP(=O)(O)OP(=O)(O)OC[C@H]1O[C@@H](n2cnc3c(O)ncnc32)[C@H](O)[C@@H]1O [Inosine 5'-triphosphate]")
0
>>> data_value("Nc1nc2c(ncn2[C@@H]2O[C@H](COP(=O)(O)OP(=O)(O)OP(=O)(O)O)[C@@H](O)[C@H]2O)c(=O)[nH]1 [Guanosine 5'-triphosphate]")
0
>>> data_value("O=c1ccn([C@@H]2O[C@H](COP(=O)(O)OP(=O)(O)OP(=O)(O)O)[C@@H](O)[C@H]2O)c(=O)[nH]1 [Uridine 5'-triphosphate]")
3.9

FYI, the data here is from patent US4579822A.
